Recorded Max. Effect (%) values for a group of compounds are listed next.
- system_name: 17β-HSD10 (Homo sapiens)
- Construct: Histev (histidine tag with TEV site) (N, cleaved yes); made in house; host or cells: E. coli BL21-CodonPlus
- protocol_summary: 17β-HSD10 (ABAD) enzyme inhibition assay, NADH oxidation read at 340 nm (primary screen and dose response)
- Assay type: biochemical
- condition_label: recombinant 17βHSD10 enzyme assay
# value in %; strip the unit string

{"compound": "CNC(=O)CN(C)c1cccc(N(CC(C)C)C(=O)c2ccccc2F)c1", "unit_symbol": "%", "Max. Effect (%)": 65}
{"compound": "CN(Cc1cnc[nH]1)c1ccc2c(c1)N(C(=O)c1ccccc1F)CCC2", "unit_symbol": "%", "Max. Effect (%)": 2}
{"compound": "O=C(c1sccc1Cl)N1CCC[C@H]1c1ccccc1-c1cc(O)cc(F)c1 (single isomer, unassigned) [ESC1002801]", "unit_symbol": "%", "Max. Effect (%)": 100}
{"compound": "CC(C)CN(C(=O)c1ccccc1F)c1cccc(N(C)Cc2ccc(O)nc2)c1", "unit_symbol": "%", "Max. Effect (%)": 16}
{"compound": "CCN(C(=O)c1ccccn1)c1cccc(N(C)Cc2cnc[nH]2)c1", "unit_symbol": "%", "Max. Effect (%)": 20.3}

Prompt: Data request, read-out Max. Effect (%), for COc1cccc(-c2ccccc2[C@@H]2CCCN2C(=O)c2sccc2C)c1OC
Response: 97

Prompt: Now consider CCN(C(=O)C1CCOCC1)c1cccc(N(C)Cc2cnc[nH]2)c1 and answer again.
Response: 18.4

----------
- system_name: 17β-HSD10 (Homo sapiens, UniProt Q99714)
- Construct: Histev (histidine tag with TEV site) (N, cleaved yes); made in house; host or cells: E. coli BL21-CodonPlus
- protocol_summary: 17β-HSD10 (ABAD) enzyme inhibition assay, NADH oxidation read at 340 nm (primary screen and dose response)
- Assay type: biochemical
- condition_label: recombinant 17βHSD10 enzyme assay, curve fit
measurement_label: Hill Slope
Lab note: jot the number down without any unit.

{"molecule": "Cc1ncc(CN(C)c2cccc(N(CC(C)C)C(=O)c3ccccc3F)c2)[nH]1 [ESC1002203]", "measurement_label": "Hill Slope", "recorded_measurement": 1.1}
{"molecule": "COCCN(C(=O)c1ccccc1F)c1cccc(N(C)Cc2c[nH]cn2)c1 [ESC1002266]", "measurement_label": "Hill Slope", "recorded_measurement": 0.98}

Prompt: Data request, read-out Hill Slope, for O=C(c1sccc1Cl)N1CCC[C@H]1c1ccccc1-c1ccc(F)c(O)c1 (racemic) [ESC1002775]
Response: 1.2

----------
Recorded pEC50 values for a group of compounds are listed next.
- system_name: 17β-HSD10 (Homo sapiens, UniProt Q99714)
- Construct: Histev (histidine tag with TEV site) (N, cleaved yes)
- Sequence (Q99714 1-261): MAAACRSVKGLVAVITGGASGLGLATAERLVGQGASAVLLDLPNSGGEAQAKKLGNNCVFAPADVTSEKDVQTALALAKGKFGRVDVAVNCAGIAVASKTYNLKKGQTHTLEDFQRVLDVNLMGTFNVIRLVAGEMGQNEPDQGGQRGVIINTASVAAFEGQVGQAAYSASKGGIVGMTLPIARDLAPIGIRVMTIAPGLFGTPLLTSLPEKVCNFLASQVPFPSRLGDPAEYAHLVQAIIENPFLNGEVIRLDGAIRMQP
- protocol_summary: 17β-HSD10 (ABAD) enzyme inhibition assay, NADH oxidation read at 340 nm (primary screen and dose response)
- condition_label: recombinant 17βHSD10 enzyme assay
pEC50: −log10 of the molar value.

{"compound": "COCCN(C(=O)c1ccccc1F)c1cccc(N(C)Cc2cn(CCOC)cn2)c1 [ESC1002164]", "pEC50": "< 4.70"}
{"compound": "CCN(C(=O)C1CCCCN1C)c1cccc(N(C)Cc2cnc[nH]2)c1 (stereo not shown) [S2−T7]", "pEC50": "< 4.70"}

Prompt: Data request, read-out pEC50, for CNC(=O)CNc1cccc(N(CC(C)C)C(=O)c2ccccc2F)c1 [ESC1002573]
Response: < 4.70

Prompt: Now consider Cc1ccc(C(=O)N(CC(C)C)c2cccc(N(C)Cc3cnc[nH]3)c2)cc1 [ESC1002032] and answer again.
Response: 6.60

Prompt: Now consider CCCn1c(C(N)=O)cc2cc(-c3cn[nH]c3)ccc21 [ESC1002019] and answer again.
Response: 5.40

Prompt: Now consider O=C(c1ncco1)N1CCC[C@H]1c1ccccc1 [S1−T9] and answer again.
Response: < 4.70

Prompt: Now consider COc1cccc(-c2ccccc2[C@H]2CCCN2Cc2ccccc2)c1 [ESC1002504] and answer again.
Response: < 4.70

Prompt: Now consider CCc1ccc(CN(C)c2cccc(N(CC(C)C)C(=O)c3ccccc3F)c2)cn1 [ESC1002213] and answer again.
Response: < 4.70

Prompt: Now consider O=C(c1[nH]ncc1Cl)N1CCC[C@H]1c1ccccc1 [S1−T14] and answer again.
Response: < 4.70

Prompt: Now consider Cc1ccsc1C(=O)N1CCC[C@H]1c1ccccc1-c1ccccc1Cl (single isomer, unassigned) [ESC1002766] and answer again.
Response: < 4.70

----------
- system_name: 17β-HSD10 (Homo sapiens)
- Construct: Histev (histidine tag with TEV site) (N, cleaved yes); made in house; host or cells: E. coli BL21-CodonPlus
- protocol_summary: 17β-HSD10 (ABAD) enzyme inhibition assay, NADH oxidation read at 340 nm (primary screen and dose response)
- Assay type: biochemical
- condition_label: recombinant 17βHSD10 enzyme assay, curve fit
Recorded Min. Fit values for a group of molecules are listed next.
Lab note: jot the number down without any unit.

Known Min. Fit results, listed for orientation:
{"molecule": "CC(C)CN(C(=O)c1ccccc1F)c1cccc(N(C)Cc2nccn2C)c1", "recorded_measurement": 0}
{"molecule": "Cc1ncc(CN(C)c2cccc(N(CC(C)C)C(=O)c3ccccc3F)c2)[nH]1 [ESC1002203]", "recorded_measurement": 0}
{"molecule": "CC(C)CN(C(=O)c1ccc(Cl)cc1)c1cccc(N(C)Cc2cnc[nH]2)c1", "recorded_measurement": 0}
{"molecule": "Cc1ccsc1C(=O)N1CCC[C@H]1c1ccccc1-c1ccc(C(=O)N(C)C)cc1", "recorded_measurement": 0}
{"molecule": "CC(C)CN(C(=O)c1ccncc1)c1cccc(N(C)Cc2cnc[nH]2)c1", "recorded_measurement": "−3"}

Attention now shifts to the item below.
Prompt: Data request, read-out Min. Fit, for CC(C)CN(C(=O)c1ccc(Cl)cc1F)c1cccc(N(C)Cc2cnc[nH]2)c1
Response: −6

----------
- system_name: 17β-HSD10 (Homo sapiens)
- Construct: Histev (histidine tag with TEV site) (N, cleaved yes); made in house; host or cells: E. coli BL21-CodonPlus
- protocol_summary: 17β-HSD10 (ABAD) enzyme inhibition assay, NADH oxidation read at 340 nm (primary screen and dose response)
- Assay type: biochemical
- condition_label: recombinant 17βHSD10 enzyme assay, curve fit
Recorded Hill Slope values for a group of compounds are listed next.
Lab note: jot the number down without any unit.

Known Hill Slope results, listed for orientation:
{"compound": "COc1ccccc1C(=O)N(CC(C)C)c1cccc(N(C)Cc2c[nH]cn2)c1", "recorded_measurement": 1}
{"compound": "CC(C)CN(C(=O)c1ccc(F)cc1F)c1cccc(N(C)Cc2c[nH]cn2)c1", "recorded_measurement": 1.1}
{"compound": "Cc1ncc(CN(C)c2cccc(N(CC(C)C)C(=O)c3ccccc3F)c2)[nH]1 [ESC1002204]", "recorded_measurement": 1.2}
{"compound": "C#CCN(C)c1cccc(N(CC(C)C)C(=O)c2ccccc2F)c1", "recorded_measurement": 0.98}
{"compound": "CC(C)CN(C(=O)c1ccncn1)c1cccc(N(C)Cc2c[nH]cn2)c1", "recorded_measurement": 1.3}
{"compound": "O=C(c1sccc1Cl)N1CCC[C@H]1c1ccccc1-c1cncnc1 (racemic)", "recorded_measurement": 1.1}
{"compound": "CC(C)CN(C(=O)c1ccccc1F)c1cccc(N(C)Cc2cc[nH]n2)n1", "recorded_measurement": 1.2}

Attention now shifts to the item below.
Prompt: Data request, read-out Hill Slope, for CC(C)CN(C(=O)c1ccccc1F)c1cccc(N(C)Cc2ccn[nH]2)c1 [ESC1002205]
Response: 1.1

----------
- system_name: 17β-HSD10 (Homo sapiens)
- Construct: Histev (histidine tag with TEV site) (N, cleaved yes); made in house; host or cells: E. coli BL21-CodonPlus
- protocol_summary: 17β-HSD10 (ABAD) enzyme inhibition assay, NADH oxidation read at 340 nm (primary screen and dose response)
- Type: biochemical
- condition_label: recombinant 17βHSD10 enzyme assay
- Experimental: Cell pellets of E. coli BL21-CodonPlus cells containing Histev-17β-HSD10 protein were re-suspended for 30 min, 4° C., in lysis buffer (20 mM NaH2PO4, 30 mM imidazole, 500 mM NaCl, 10% (v/v) glycerol, pH 7.5) with the addition of complete ethylenediaminetetraacetic acid (EDTA)-free protease inhibitor tablets (Roche), lysozyme (1 mg/mL), deoxyribonuclease (DNase) (20 μg/mL) and Triton X-100 (0.1% (v/v)). […]
Could you label it YES if measured Max. Effect (%) is 90% or higher, and NO otherwise?

{"compound": "COc1cccc(-c2ccccc2[C@@H]2CCCN2Cc2sccc2F)c1 (racemic)", "system_name": "17β-HSD10 (Homo sapiens)", "cat": "NO"}
{"compound": "COc1cccc(-c2ccccc2[C@H]2CCCN2C(=O)c2sc(C)nc2C)c1", "system_name": "17β-HSD10 (Homo sapiens)", "cat": "NO"}
{"compound": "CC(C)CN(C(=O)c1ccccc1F)c1cccc(N(C)Cc2c[nH]nn2)c1", "system_name": "17β-HSD10 (Homo sapiens)", "cat": "NO"}
{"compound": "Cc1ccc(C(=O)N(c2cccc(N(C)Cc3cnc[nH]3)c2)C(C)C)cc1", "system_name": "17β-HSD10 (Homo sapiens)", "cat": "YES"}
{"compound": "CCN(C(=O)C1CCCCN1C)c1cccc(N(C)Cc2cnc[nH]2)c1 (centres unmarked)", "system_name": "17β-HSD10 (Homo sapiens)", "cat": "NO"}

Prompt: Decide: Max. Effect (%) of Cc1n[nH]c(Cc2ccccc2)c1-c1ccccc1O >= 90%?
Response: YES

Prompt: Now consider COc1cccc(-c2ccccc2[C@H]2CCCN2C(=O)c2cc(C)cs2)c1 and answer again.
Response: NO

Prompt: Now consider Cc1ccsc1C(=O)N1CCC[C@@H]1c1ccccc1-c1ccn[nH]1 and answer again.
Response: NO

Prompt: Now consider COc1cccc(-c2ccccc2[C@H]2CCCN2C(=O)c2sccc2OC)c1 and answer again.
Response: NO

Prompt: Now consider COc1cccc(-c2ccccc2[C@@H]2CCCN2C(=O)c2sccc2C)c1 (single isomer, unassigned) [ESC1002421] and answer again.
Response: YES

Prompt: Now consider COc1cccc(-c2ccccc2[C@H]2CCCN2C(=O)c2sccc2F)c1 and answer again.
Response: YES

Prompt: Now consider COc1cccc(-c2ccccc2[C@H]2CCCN2C(=O)c2ccccc2C)c1 and answer again.
Response: NO

Prompt: Now consider Cc1ccsc1C(=O)N1CCC[C@@H]1c1ccccc1-c1c[nH]nc1C(F)(F)F and answer again.
Response: NO

The reported numbers originate from patent US20260132123A1.
